- System: MS2 coat protein
- experiment_notes: apparent KD of MS2 coat protein; higher = weaker reporter binding
- test_parameters: Eterna round: R107; input ligand: tryptophan 2.4 mM
I'd appreciate it if you could supply apparent KD of MS2 coat protein values for the items below.
One number for each entry, in µM.

entry_sequence="AGCAGAUCCCAGCGAAAGCUGGGAUCUGCACGAGGACCGGUACGGCCGCCACUCGAGGACAUGAGGAUCACCCAUGUACCGGUCA [Glorfindel]" experimental_result=0.0783
entry_sequence="AGAGUCAGACAAAAGUCUGGCUCAGCCGAAGGAGCGUCCGAAAGGACAGGUAGGUCGCGGUUCCAUGAGGAUCACCCAUGGUCCU [ArgAS 28 #OpenEnded #AlternativeMS2]" experimental_result=0.0711

Value of measured apparent KD of MS2 coat protein for the entry CCAUGCAGGUCGGCCGCCACUACACACAUGAGGAUCACCCAUGUAGUUACUGGGUGAAGUGGCAGUAGGACCGGGACCUGCAUAU [Brourdmod11] : 1.02

###

- Test system: K4 kissing-loop RNA reporter;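 also: bound reporter read as fluorescence of individual clusters on recovered sequencing chips by microscopy, with normalized cluster intensities fitted with a binding model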
- experiment_notes: apparent KD of K4 kissing-loop reporter; higher = weaker reporter binding
- test_parameters: Eterna round: R107; input ligand: tryptophan 2.4 mM
experimental_endpoint: apparent KD of K4 kissing-loop reporter (nM)
Numbers only, in nM.

entry_sequence=GGUAGCAUGGCGGCCGCCACUGAGGCCCUAUACGAGUCCUAAACAACCUAGUGAUGUUAGGAGUCCAGGACCGGGCCAUGCUACC target_desc="K4 kissing-loop RNA reporter" experimental_endpoint="apparent KD of K4 kissing-loop reporter" experimental_result=440
entry_sequence="AAUGGGUGAUAAGGAUAUCCACCUCACAAACCAAGAGUGAUGUUCGUUGGUCCAUGGACAAUAUGUGGAGAAGGUAUAGUGAUUA [theeternabot_exclusion_KL_FMN_B_48]" target_desc="K4 kissing-loop RNA reporter" experimental_endpoint="apparent KD of K4 kissing-loop reporter" experimental_result=700
entry_sequence="UUGUCCGGGUGAUGGUCAUCACGUGGCGGGCGAGGACCGGUACGGCCGCCACUCGACUUUGCAGUGAUGUUGCAAACCGGACAAU [Exclusion - Tryptophan A (Freestyle 23)]" target_desc="K4 kissing-loop RNA reporter" experimental_endpoint="apparent KD of K4 kissing-loop reporter" experimental_result=210

Value sought for every listed sequence: apparent KD of K4 kissing-loop reporter.
1. AACUUGUUUGGAGGAUAUUCUUUAUUCGACAUAACCUUCUAUAAGGUGCAGUGAUGUUGCAAUAUAGGAGAAGGUCGAGUGAGAA [Exclusion FMN B Gf 16]
2. GGUGUGCCAGUGAUGUUGGCAUAAACUGAAGGAGCGCGUGAAAACGCAGGUAGGUCGCAGAACCUUGCCAACUAUUUUAUUCACC [Ex Arginine A K4 25]
3. AAGUUGAACUGAAGGAGCGAGAAAUAGAAUGUAAGAAUAUAUGCUAGUGAUGUUAGAAAUUCUCAGGUAGGUCGCAGUAAGUUUU [V2]

1. 186
2. 168
3. 285

###

Consider the following sequences; for each one, report its apparent KD of MS2 coat protein.
- Test system: MS2 coat protein
- experiment_notes: apparent KD of MS2 coat protein; designed switch direction (-1 OFF switch, 1 ON switch): -1; higher = weaker reporter binding
- test_parameters: Eterna round: R95; input ligand: microRNA oligo, concentration not stated

These recorded examples may help you get a feel for the data.
entry_sequence="GGUUGGCGAGGAUAUACAUGAGGAUCACCCAUGUGAGAGAUAAAAGUGAGGAAGAAAAGUAGAAGGCGCUGACG [salish99_ex3_r3_012] (puzzle: Exclusion 3)" experimental_endpoint="apparent KD of MS2 coat protein" experimental_result="29.5 nM"
entry_sequence="GGUCCUCUGGUGAGGAUAUCUACCCAGGCAGCUGGAGAGAAGGCACAUGAGGAUCACCCAUGUAGCAGAAAACC [Enremadi] (puzzle: Brourd's mod of Exclusion 4)" experimental_endpoint="apparent KD of MS2 coat protein" experimental_result="9.56 nM"
entry_sequence="UGGCUGCUCAGGGAGUGUGACAUGAGGAUCACCCAUGUGGUGGUAGGGAACAAGCUUUUUGCACGUACUUAUGAGUC [JR_SV3TOV1_Sub009] (puzzle: Sensor v3, turn-off variant 1)" experimental_endpoint="apparent KD of MS2 coat protein" experimental_result="107 nM"
entry_sequence="CGUGUCUUUCACGUGAGUGGUGGGUGCAACAGGUGGGAAACAUGAGGAUCACCCAUGUCCUCAUUUGCUCGUCUUAU [Grok-var2-02] (puzzle: Sensor v3, turn-off variant 2)" experimental_endpoint="apparent KD of MS2 coat protein" experimental_result="457 nM"
entry_sequence="CCGAGGAAGCGGUCCUAUGACAUGAGGAUCACCCAUGUACCUCGCUACGAGCUUUUUGCUCGUCUUAUAAUUCUCGG [Mat - Sensor v3 - turn-off var 1 - JL Mod - D28] (puzzle: Sensor v3, turn-off variant 1)" experimental_endpoint="apparent KD of MS2 coat protein" experimental_result="65.5 nM"
entry_sequence="CCAAGCUGUGUGAGGAUAUGCUGGUCGAAAGAUCAGCAGAAGGCACAUGAGGAUCACCCAUGUGAAAAGCUUGG [Mat - Exclusion 4 - JL Mod - D93] (puzzle: Brourd's mod of Exclusion 4)" experimental_endpoint="apparent KD of MS2 coat protein" experimental_result="16.3 nM"
entry_sequence="GCAGGAUAAGUCAGGAUAUACCUAUGGAUACAUAGGUAGAAGGGACAUGAGGAUCACCCAUGUGCCUCGCCUGC [Fiskers BMX 4 - 72] (puzzle: Brourd's mod of Exclusion 4)" experimental_endpoint="apparent KD of MS2 coat protein" experimental_result="12.4 nM"
entry_sequence="GAGGAACAUGAGGAUCACCCAUGUGAGGAUAUGCAUAGCGAGGUAGUAGAAGUUGAAUGCAGAAGGUACACGGA [JR_Exclu1_Sub076] (puzzle: Exclusion 1)" experimental_endpoint="apparent KD of MS2 coat protein" experimental_result="27.5 nM"

Please report apparent KD of MS2 coat protein for every entry that follows.
1. AAUAACAGAGGAUAUACUAUUUUAUGUAUUUAUUAUUUUAAACAUGAGGAUCACCCAUGUAGAAGGCUGAAUGA [JMF 54] (puzzle: Exclusion 2)
2. GGUUGGCGAGGAUAUACAUGAGGAUCACCCAUGUGAGAGAUACUAGUGAGGUCGAUUGGUAGAAGGCGCUGACG [JL-ex3-2.02 salish99 mod] (puzzle: Exclusion 3)

21.6 nM
95.5 nM
